Reference for the values: patent US20260176279A1

Test system: HCT-116 cells
methodDescription: HCT-116 Cell Proliferation Assay
Format: cell-based
details: Homo sapiens; Table 2, inhibition of cell proliferation; read-out: HCT-116
pIC50: −log10 of the molar value.
assayMetric: pIC50

>>> df
                                  cpdsmiles  targetundertest  assaymetric   resultvalue
0  CC(=O)Nc1cc(-c2cc(-c3cc(NC(=O)Nc4ccc(C(F)(F)F)nc4)ccc3C)ccn2)ccn1    HCT-116 cells        pIC50        > 7.00
1  Cc1ccc(NC(=O)Nc2ccc(C(F)(F)F)nc2)cc1-c1cc(OC2CCNCC2)nc(N2CCOCC2)c1    HCT-116 cells        pIC50  6.00 to 6.30
2  CC(=O)Nc1cc(-c2cncc(-c3cc(NC(=O)Nc4ccc(C(F)(F)F)nc4)ccc3C)n2)ccn1    HCT-116 cells        pIC50  6.30 to 7.00
3  COCC(=O)Nc1cc(-c2cncc(-c3cc(NC(=O)Nc4ccc(C(F)(F)F)nc4)ccc3C)n2)ccn1    HCT-116 cells        pIC50  6.00 to 6.30
4  Cc1ccc(NC(=O)Nc2ccc(C(F)(F)F)nc2)cc1-c1cc(N2CCOCC2)nc(N2CCC(O)CC2)n1    HCT-116 cells        pIC50        > 7.00
5  Cc1ccc(NC(=O)Nc2ccc(C(F)(F)F)nc2)cc1-c1cc(-c2ccnc(NC(=O)CN(C)C)c2)c(=O)n(C)c1    HCT-116 cells        pIC50  6.00 to 6.30
6  Cc1ccc(NC(=O)Nc2ccc(C(F)(F)F)nc2)cc1-c1cc(OCCO)nc(N2CCOCC2)c1    HCT-116 cells        pIC50        > 7.00
7  CC(=O)Nc1cc(-c2cc(-c3cc(NC(=O)Nc4ccc(C(F)(F)F)nc4)cnc3C)ccn2)ccn1    HCT-116 cells        pIC50  5.00 to 6.00
8  Cc1ccc(NC(=O)Nc2ccc(C(F)(F)F)nc2)cc1-c1cc(OC[C@@H](C)O)nc(N2CCOCC2)c1    HCT-116 cells        pIC50        > 7.00

---

targetUnderTest: B-Raf kinase (Homo sapiens, UniProt P15056)
Construct: GST (N); purchased Sigma
Sequence (P15056 416-766): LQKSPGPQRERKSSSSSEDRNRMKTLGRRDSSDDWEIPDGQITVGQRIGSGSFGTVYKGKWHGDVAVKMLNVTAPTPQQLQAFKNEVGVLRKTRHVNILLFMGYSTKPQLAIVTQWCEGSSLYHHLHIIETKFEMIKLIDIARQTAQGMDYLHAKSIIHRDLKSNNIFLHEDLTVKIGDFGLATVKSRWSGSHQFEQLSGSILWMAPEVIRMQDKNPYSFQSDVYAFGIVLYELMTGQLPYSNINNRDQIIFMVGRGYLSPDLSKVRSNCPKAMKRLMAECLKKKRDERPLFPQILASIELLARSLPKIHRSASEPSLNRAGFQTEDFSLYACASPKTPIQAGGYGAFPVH
methodDescription: Biochemical Assay for B-Raf (coupled pyruvate kinase/lactate dehydrogenase assay)
details: Table 1, inhibition of biochemical activity; read-out: BRAF
Parameter IC50: see the listing below.
assayMetric: IC50

>>> df
                                  cpdsmiles    resultvalue
0  Cc1ccc(NC(=O)Nc2ccc(C(F)(F)F)nc2)cc1-c1ccnc(N2CCOCC2)c1  100 to 500 nM
1  Cc1ccc(NC(=O)Nc2ccc(C(F)(F)F)nc2)cc1-c1cncc(-c2cc(NC(=O)C3CC3)ncn2)c1       < 100 nM
2  Cc1ccc(NC(=O)Nc2ccc(C(F)(F)F)nc2)cc1-c1cc(OCCO)nc(N2CCOCC2)c1  100 to 500 nM
3  Cc1ccc(NC(=O)Nc2ccc(C(F)(F)F)nc2)cc1-c1cc(-c2ccnc(NC(=O)CN(C)C)c2)c(=O)n(C)c1  100 to 500 nM
